# assay remarks: Plasma concentration 3 h post dose in murine model of tuberculosis
# Type: in vivo, BALB/c mice infected with M. tuberculosis H37Rv
# setup conditions: female, BALB/c, mouse, plasma, po, TB model, BDQ + TBI-166 group, W4; read-out: Mean plasma concentration at three hours after oral administration
assay endpoint: concentration at 3 h (ng/mL)
// return numeric value only (unit: ng/mL, not printed)

Return reported concentration at 3 h; argument: COc1nc2ccc(Br)cc2cc1[C@@H](c1ccccc1)[C@@](O)(CCN(C)C)c1cccc2ccccc12 [BDQ, Bedaquiline] 647

---

# tested on: CYP2B6 (Homo sapiens)
# Sequence (P20813 1-491): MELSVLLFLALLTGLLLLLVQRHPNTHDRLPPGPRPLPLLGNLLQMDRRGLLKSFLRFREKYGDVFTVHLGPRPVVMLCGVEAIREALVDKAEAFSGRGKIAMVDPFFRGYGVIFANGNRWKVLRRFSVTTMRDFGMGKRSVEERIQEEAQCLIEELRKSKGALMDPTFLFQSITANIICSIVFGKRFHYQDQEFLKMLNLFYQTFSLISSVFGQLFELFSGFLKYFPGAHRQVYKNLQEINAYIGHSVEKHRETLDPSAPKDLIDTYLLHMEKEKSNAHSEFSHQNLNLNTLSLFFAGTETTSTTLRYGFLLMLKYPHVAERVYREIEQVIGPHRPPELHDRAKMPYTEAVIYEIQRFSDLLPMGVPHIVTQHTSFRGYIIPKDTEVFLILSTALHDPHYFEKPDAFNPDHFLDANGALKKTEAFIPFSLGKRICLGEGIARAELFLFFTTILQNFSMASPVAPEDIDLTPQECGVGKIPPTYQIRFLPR
# assay remarks: Direct CYP inhibition in human liver microsomes with marker probe substrates
# Type: in vitro ADME
# setup conditions: HLM, CYP2B6 probe substrate
assay endpoint: IC50 (µM)
// return numeric value only (unit: µM, not printed)

Notebook: pull reported IC50 for CYP2B6 (Homo sapiens), entry COc1ncccc1Nc1cc2nc3ccccc3n(-c3ccc(OC(F)(F)F)cc3)c-2cc1=NC1CCC(OC)CC1 (stereo not shown) 4.35

Origin of values: paper PMC10582325
